- Tested On: Avi-KRAS WT (1-169) GppNHp/RAF1 RBD-3xFLAG (52-151) (Homo sapiens, UniProt P01116)
- Construct: Avi-KRAS WT (1-169)
- Sequence (P01116 1-169 isoform P01116-2): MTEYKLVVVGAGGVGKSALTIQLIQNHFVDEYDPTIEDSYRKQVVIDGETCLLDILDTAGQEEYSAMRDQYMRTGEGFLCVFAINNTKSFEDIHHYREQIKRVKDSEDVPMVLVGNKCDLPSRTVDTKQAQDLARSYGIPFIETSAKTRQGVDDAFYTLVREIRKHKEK
- Assay Details: Raf1-KRAS WT-GppNHP disruption HTRF assay (Biological Example 1)
- Assay type: binding
- Measurement Conditions: KRAS WT, GppNHp-loaded; Table 11
pIC50: −log10 of the molar value.
Task for the reader: assign each of the following compounds its reported pIC50.

Past entries and their recorded results:
Compound	Tested On	pIC50
CCN(c1nc(OC[C@@]23CCCN2C[C@H](F)C3)nc2c(F)c(-c3ccc(F)c4sc(N)c(C#N)c34)c(C(F)(F)F)cc12)C1CC1	Avi-KRAS WT (1-169) GppNHp/RAF1 RBD-3xFLAG (52-151) (Homo sapiens, UniProt P01116)	5.00 to 6.00
Nc1nc2c(-c3c(C(F)(F)F)cc4c(N5CCCC(O)C5)nc(OCC56CCCN5CCC6)nc4c3F)ccc(F)c2s1 (stereo not shown)	Avi-KRAS WT (1-169) GppNHp/RAF1 RBD-3xFLAG (52-151) (Homo sapiens, UniProt P01116)	< 5.00
CN(c1nc(OC[C@@]23CCCN2C[C@H](F)C3)nc2c(F)c(-c3ccc(F)c4sc(N)c(C#N)c34)c(C(F)(F)F)cc12)[C@@H]1C[C@H](O)[C@H]1CO	Avi-KRAS WT (1-169) GppNHp/RAF1 RBD-3xFLAG (52-151) (Homo sapiens, UniProt P01116)	> 7.00
N#Cc1c(N)sc2c(F)ccc(-c3c(C(F)(F)F)cc4c(N5CCC(F)CC5)nc(OC[C@@]56CCCN5C[C@H](F)C6)nc4c3F)c12	Avi-KRAS WT (1-169) GppNHp/RAF1 RBD-3xFLAG (52-151) (Homo sapiens, UniProt P01116)	6.00 to 7.00
N#Cc1c(N)sc2c(F)ccc(-c3c(C(F)(F)F)cc4c(N5CCOCC5)nc(OC[C@@]56CCCN5C[C@H](F)C6)nc4c3F)c12 (single isomer, unassigned) [Compound 199]	Avi-KRAS WT (1-169) GppNHp/RAF1 RBD-3xFLAG (52-151) (Homo sapiens, UniProt P01116)	< 5.00

# batch: return pIC50 for each of the 4 compounds below
1. CN(c1nc(OC[C@@]23CCCN2C[C@H](F)C3)nc2c(F)c(-c3ccc(F)c4sc(N)c(C#N)c34)c(C(F)(F)F)cc12)[C@@H]1CCN(C(=O)CC#N)C1 (atropisomer, axis not shown)
2. CN(c1nc(OC[C@@]23CCCN2C[C@H](F)C3)nc2c(F)c(-c3ccc(F)c4scc(C#N)c34)c(C(F)(F)F)cc12)[C@@H]1CCN(C(=O)CO)C1
3. CN(c1nc(OC[C@@]23CCCN2C[C@H](F)C3)nc2c(F)c(-c3ccc(F)c4scc(C#N)c34)c(C(F)(F)F)cc12)[C@@H]1CCN(C(=O)CC#N)C1
4. CC(=O)N(C)[C@H]1CCN(c2nc(OC[C@@]34CCCN3C[C@H](F)C4)nc3c(F)c(-c4ccc(F)c5sc(N)c(C#N)c45)c(C(F)(F)F)cc23)C1

Result:
["6.00 to 7.00", "< 5.00", "< 5.00", "5.00 to 6.00"]

Please look at the items below and tell me pIC50 for each one, in order.
1. N#Cc1c(N)sc2c(F)ccc(-c3c(C(F)(F)F)cc4c(N5CCC[C@@H](O)C5)nc(OC[C@@]56CCCN5C[C@H](F)C6)nc4c3F)c12
2. CCN(c1nc(OC[C@@]23CCCN2C[C@H](F)C3)nc2c(F)c(-c3ccc(F)c4sc(N)c(C#N)c34)c(C(F)(F)F)cc12)[C@H]1C[C@@H](O)C1

Result:
["6.00 to 7.00", "6.00 to 7.00"]

Each of the following entries comes with a recorded value; kindly state pIC50 for each.
1. C[C@@H]1C[C@H](O)CCN1c1nc(OC[C@@]23CCCN2C[C@H](F)C3)nc2c(F)c(-c3ccc(F)c4sc(N)c(C#N)c34)c(C(F)(F)F)cc12
2. N#Cc1c(N)sc2c(F)ccc(-c3c(C(F)(F)F)cc4c(N5CC[C@H]5CO)nc(OC[C@@]56CCCN5C[C@H](F)C6)nc4c3F)c12

Result:
1. 6.00 to 7.00
2. 6.00 to 7.00

Batch request: pIC50 for each of the following compounds.
1. CCN(CCC#N)c1nc(OC[C@@]23CCCN2C[C@H](F)C3)nc2c(F)c(-c3ccc(F)c4sc(N)c(C#N)c34)c(C(F)(F)F)cc12
2. CN(c1nc(OC[C@@]23CCCN2C[C@H](F)C3)nc2c(F)c(-c3ccc(F)c4sc(N)c(C#N)c34)c(C(F)(F)F)cc12)C1CCC(O)CC1 (stereo partly shown) [Compound 65]
3. CN(c1nc(OCC2(CN3CCOCC3)CC2)nc2c(F)c(-c3ccc(F)c4sc(N)c(C#N)c34)c(C(F)(F)F)cc12)[C@H]1C[C@@H](O)C1 (atropisomer, axis not shown)
4. CN(C[C@H](F)CO)c1nc(OC[C@@]23CCCN2C[C@H](F)C3)nc2c(F)c(-c3ccc(F)c4sc(N)c(C#N)c34)c(C(F)(F)F)cc12
5. CCN(CCO)c1nc(OC[C@@H]2CCCN2C)nc2c(F)c(-c3ccc(F)c4sc(N)c(C#N)c34)c(C(F)(F)F)cc12
6. N#Cc1c(N)sc2c(F)ccc(-c3c(C(F)(F)F)cc4c(N5CC6CCC(C5)C6CO)nc(OC[C@@]56CCCN5C[C@H](F)C6)nc4c3F)c12 (stereo partly shown)
7. N#Cc1c(N)sc2c(F)ccc(-c3c(C(F)(F)F)cc4cnc(OC[C@@]56CCCN5C[C@H](F)C6)nc4c3F)c12
8. N#Cc1c(N)sc2c(F)ccc(-c3c(C(F)(F)F)cc4c(N5CCOCC5)nc(OC[C@@]56CCCN5C[C@H](F)C6)nc4c3F)c12 (single isomer, unassigned) [Compound 198]

Result:
6.00 to 7.00
6.00 to 7.00
6.00 to 7.00
6.00 to 7.00
6.00 to 7.00
6.00 to 7.00
6.00 to 7.00
6.00 to 7.00

Q: State the recorded pIC50 for this entry: CN1CCC[C@H]1COc1nc(N(C)[C@H]2C[C@@H](O)C2)c2cc(C(F)(F)F)c(-c3ccc(F)c4sc(N)c(C#N)c34)c(F)c2n1
Result: 6.00 to 7.00

Origin of measurements: patent US20260042764A1
